Test system: T10
Type: binding, llama
CONDITION INFO: cross-reactivity = IC50(TCC)/IC50(cross reacting compound) × 100; nanobody T10
Parameter: CR (%) T10. Scope: all listed entries.
PROPERTY MEASURED: CR (%) T10

COMPOUND | PROPERTY MEASURED | MEASUREMENT
CC(=O)N1CCC(NC(=O)Nc2ccc(OC(F)(F)F)cc2)CC1 | CR (%) T10 | 0.9
Oc1cc(Cl)ccc1Oc1ccc(Cl)cc1Cl | CR (%) T10 | 0.9
CS(=O)(=O)N1CCC(NC(=O)Nc2ccc(OC(F)(F)F)cc2)CC1 | CR (%) T10 | 1.5
O=C(Nc1ccc(Cl)cc1)Nc1ccc(Cl)c(C(F)(F)F)c1 | CR (%) T10 | 15
O=C(Nc1ccc(Cl)cc1)Nc1ccc(Cl)c(Cl)c1 | CR (%) T10 | 100
O=C(Nc1ccccc1)Nc1ccccc1 [Carbanilide] | CR (%) T10 | 8.8
O=C(Nc1ccc(Cl)c(Cl)c1)Nc1ccc(Cl)cc1O | CR (%) T10 | 15
O=C(Nc1ccc(Cl)cc1)Nc1ccc(Cl)cc1 [4,4’-Dichlorocarbanilide] | CR (%) T10 | 100
